protocol_text: chemical genetic growth profiling, strain panel (AID 1159580);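 also: tested at 20 µM; growth read once vehicle control cultures reached saturation at 30 °C; 1 = growth at the plate median or of vehicle wells; lower values mean less growth of the strain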
assay_conditions: S. cerevisiae deletion strains, growth OD, locus YBR009C, strain hhf1, active compounds read low
Screen size: about 5,500 compounds; about 2,000 (36%) were called active. Another 18% or so got no clear call; they are omitted. The list shows a part of the results.
attribute_measured: normalized growth
Write the value as a bare number.

Ask: Give its normalized growth value. Item: CC1(C)S[C@@H]2[C@H](NC(=O)C(C(=O)O)c3ccccc3)C(=O)N2[C@H]1C(=O)O (stereo partly specified)
Result: 0.934

Ask: Give its normalized growth value. Item: `COc1ccc(-c2cc(=O)c3c(O)c(OC)c(OC)c(OC)c3o2)cc1OC`
Result: 0.965

Ask: Give its normalized growth value. Item: NCC(O)CC(=O)O (stereo unspecified)
Result: 0.962

Ask: Give its normalized growth value. Item: `COc1ccc(-c2cc(=O)c3c(O)cc(O)cc3o2)cc1`
Result: 0.939

Ask: Give its normalized growth value. Item: `OC1(c2ccc(Cl)c(C(F)(F)F)c2)CCN(CCCC(c2ccc(F)cc2)c2ccc(F)cc2)CC1`
Result: 0.0608

Ask: Give its normalized growth value. Item: NC[C@H]1O[C@H](OC2[C@@H](N)C[C@@H](N)[C@H](O[C@H]3O[C@H](CO)[C@@H](O)[C@H](N)[C@H]3O)[C@H]2O)[C@H](O)[C@@H](O)[C@@H]1O (stereo partly specified)
Result: 1.01

Ask: Give its normalized growth value. Item: CC(C)=CC1C(CO)C1(C)C (stereo unspecified)
Result: 1.03

Ask: Give its normalized growth value. Item: `COc1cc(-c2cc(=O)c3c(O)c(OC)c(OC)c(OC)c3o2)cc(OC)c1OC`
Result: 1.01

Ask: Give its normalized growth value. Item: `COc1ccc(-c2cc(=O)c3c(OC)c(OC)c(OC)c(OC)c3o2)cc1OC`
Result: 1.02

Ask: Give its normalized growth value. Item: `O=C1CC2(CCCC2)CC(=O)N1CCCCN1CCN(c2ncccn2)CC1`
Result: 0.989

Ask: Give its normalized growth value. Item: `O=C(O)C1=CC(=C(c2ccc(O)c(C(=O)O)c2)c2ccc(O)c(C(=O)O)c2)C=CC1=O`
Result: 1

Ask: Give its normalized growth value. Item: `COc1ccc(-c2cc(=O)c3c(O)c(OC)c(O[C@H]4O[C@H](CO[C@@H]5O[C@@H](C)[C@H](O)[C@@H](O)[C@H]5O)[C@@H](O)[C@H](O)[C@H]4O)cc3o2)cc1`
Result: 1

Ask: Give its normalized growth value. Item: `CC[C@@]1(O)C(=O)OCc2c1cc1n(c2=O)Cc2cc3ccccc3nc2-1`
Result: 0.681

Ask: Give its normalized growth value. Item: `O=C(O)CCc1nc(-c2ccccc2)c(-c2ccccc2)o1`
Result: 0.964

Ask: Give its normalized growth value. Item: `CCCc1nc(C)c2c(=O)[nH]c(-c3cc(S(=O)(=O)N4CCN(CC)CC4)ccc3OCC)nn12`
Result: 0.975

Ask: Give its normalized growth value. Item: `COC(=O)N/N=C\c1c[n+]([O-])c2ccccc2[n+]1[O-]`
Result: 0.99

====

protocol_text: chemical genetic growth profiling, strain panel (AID 1159580);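 also: tested at 20 µM; growth read once vehicle control cultures reached saturation at 30 °C; 1 = growth at the plate median or of vehicle wells; lower values mean less growth of the strain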
assay_conditions: S. cerevisiae deletion strains, growth OD, locus YMR205C, strain PFK2, active compounds read low
In all, about 5,500 compounds went through this assay and about 2,000 (36%) were called active. Roughly 18% stayed inconclusive and do not appear here. This is one part of the list.
Threshold-based label: normalized growth under 1 gives t, normalized growth not under 1 gives f.

Ask: Is the reported normalized growth for `COc1c(O)cc2c(c1O)[C@H]1O[C@H](CO)[C@@H](O)[C@H](O)[C@@H]1OC2=O` strictly below 1?
Result: f

Ask: Is the reported normalized growth for NCC(O)CC(=O)O (stereo unspecified) strictly below 1?
Result: t

Ask: Is the reported normalized growth for CC1=CC(=O)C2C(C)(C)CCC[C@]2(C)[C@@]1(O)CCc1ccoc1 (stereo partly specified) strictly below 1?
Result: t

Hello, the source for this data is PubChem BioAssay AID1159580, in case you need it.
